- assay: solvent given as SMILES
- conditions: in CCO
Reported emission maximum values follow for various compounds

molecule smiles	emission maximum (nm)
C#Cc1ccc2cc3c(C)cc(=O)oc3cc2c1	437
CCC1=C(C)C2=C(C)c3c(I)c(I)cn3[B-](F)(F)[N+]2=C1C	534
COc1cc(OC)cc(C(=O)OCc2c(C)c(=O)n3c(=O)c(C)c(C)n23)c1	462
Fc1ccc(-c2cc3ccc4cc(-c5ccc(F)cc5)cc5ccc(c2)c3c45)cc1	408.84
CN(C)c1ccc(/C=C2\CC/C(=C\c3ccc(C#N)cc3)C2=O)cc1	659
CC1=C(Cl)C(/C=C/c2ccc3c(c2)c2ccccc2n3Cc2cn(CCC[P+](c3ccccc3)(c3ccccc3)c3ccccc3)nn2)=[N+]2C1=C(c1ccc(I)cc1)c1c(C)c(Cl)c(C)n1[B-]2(F)F	650
COc1ccc(-c2cc3c4c(c2)CCc2cc(-c5ccc(OC)cc5)cc(c2-4)CC3)cc1	386.99
O=C1c2ccc3c4ccc5c6c(ccc(c7ccc(c2c37)C(=O)N1c1ccncc1)c64)C(=O)N(c1ccncc1)C5=O	569
N#C/C(=C/Nc1ccc(C#N)cc1)c1nc(-c2ccccc2)cs1	434
